- TEST PROTOCOL: yeast display, Sf9 membrane polyspecificity reagent, FACS + sequencing; frameworks hold sequencing errors
RESULT TYPE: polyreactivity (PSR sort gate)

Example cases with answers are listed next.
QVQLVESGGGLVQAGGSLRLSCAASGIFSHYALGWYRQAPGKERELVAAISSSGGRTYYADSVKGRFTISRDNAKNTVYLQMNSLKPEDTAVYYCAAPWRSSPYHFYYWGQGTQVTVSS :: high polyreactivity
QVQLVESGGGLVQAGGSLRLSCAASGLILGYYAMGWYRQAPGKERELVAAITSSGTTTYYADSVKGRFTISRDNAKNTVYLQMNSLKPEDTAVYYWAALYIGKKRFNYWGQGTQVNVSS :: high polyreactivity
QVQLVESGGGLVQAGGSLRLSCAASGRTFTINAMGWYRQAPGKERELVATISYSGGSTRYADSVKGRFTISRDNAKNTVYLQMNSLQPDDTAVYYCAADAGYYGRWYGHGYGYWGQGTQVTVSS :: high polyreactivity
QVQLVESGGGLVQAGGSLRLSCAASGRIFYRYAMGWYRQAPGKERELVAAISSGGSTYADSVKGRFTISRDNAKNTVYLQMNSLKPEDTAVYFCAARLYTYPKGKYWGQGTQVTVSS :: high polyreactivity
QVQLVESGGGLVQAGGSLRLSCAASGSISPQNVMGWYRQAPGKERELVAAITGGGSTNYADSVKGRFTISRDNAKNTVYLQMNSLKPEDTAVYYCAVYRRYLPYDYWGQGTQVTVSS :: low polyreactivity

Each sequence below has a reported value. Please supply its polyreactivity (PSR sort gate).
1. QVQLVESGGGLVQAGGSLRLSCAASGITFGYYAMGWYRQAPGKERELVAAITYSGGSTYYADSVKGRFTISRDNAKNTVYLQMNSLKPEDTAVYYCNADWWAYYSFGHEYWGQGTQVTVSS
2. QVQLVESGGGLVQAGGSLRLSCASSGGIFYSYDMGWYRQAPGKERELVAAITWIGGSTYYADSVKGRFTISRDNAKNTVYFQMNSLKPEDTAVYYCAAEILWGGYDYWGQGTQVSVSS
3. QVQLVESGGGLVQAGGSLRLSCAASGRTFEYYAMGWYRQAPGKEREFVAAISRSGGSTYYADSVKGRFTISRDNAKNTVYLQMNSLKPEDTAVYYCAASAIRRSQRFYHWGQGTQVTVSS
4. HVQLVETGGGLVQAGGSLRLSCAASGRIFYPYPMGWYRQAPRKERELLARISWGGGATYYADSVKGRFTISRDNAQNTVFLQMNSLKPEDTAVYYCAASYVGYWYRRGYGYWGQGTQVTVSS
5. QVQLVESGGGLVQAGGSLRLSCAASGRIFGGYVMGWYRQAPGKERELVAAINGGGGSTYYADSVKGRFTISRDNAKNTVYLQMNSLKPEDTAVYYCMLVKRSQRKSTIDFDYWGQGTQVTVSS
6. QVQLVESGGGLVQAGGSLRLSCAASGFIFWYYAMGWYRQAPGKERELVAGITSGGSTNYADSVKGRFTISRDNAKNSVYLQMNSLKPEDTAVYYCAAAPYGGFGRGYDYWGQGTQVTVSS

Result:
1: low polyreactivity; 2: low polyreactivity; 3: high polyreactivity; 4: high polyreactivity; 5: high polyreactivity; 6: high polyreactivity

For every record below, what is its polyreactivity (PSR sort gate)?
1. QVQLQESGGGLVQAGGSLRLSCAASGTFSPLPAMGWYRQAPGKERECVAGNDTGAITNYADSVKGRFTISRDNAKNTVYLQMNSLKPDDTAVYYCAVFPAAYVYYVRYYTYWGQGTQVTVCS
2. QVQLVETGGGLVQAGGSLRLSSAASGRTFYRYAMGWYRQAPGKDRELVATISRSGANTYADSVKGRFTISRDNAKNTVYLQMNSLKPEDTAVYYCNAGQYKGWGRMDYWGQGTQVTVSS
3. QVQLVESGGGLVQAGGSLRLSCAASGFILSPYAMGWYRQAPGKERELGAVITISGGSTYYADSVKGRFTISRDNAKNTVYLQMNSLKPEDTAVYYCAADYYDLVYDYYYWGQGTQVTVSS
4. QVQLVESGGGVVQAGGSLRLSCAASGSTLSYYAMGLYIQAPGTERELVAAITSGVSTNYADSVKGRFTISRDNAKNTVYFQMNSLKPEDTAVYYCAKAYGGYHDDYDYWGQVTQVTVSS

Result:
["low polyreactivity", "high polyreactivity", "high polyreactivity", "low polyreactivity"]

----------
- TEST PROTOCOL: yeast display, Sf9 membrane polyspecificity reagent, FACS + sequencing; frameworks hold sequencing errors
RESULT TYPE: polyreactivity (PSR sort gate)

Examples with answers:
QVQLVESGGGLVQAGGSLRLSCAASGLTFDAYAMGWYRQAPGKERELDAAISSGGNTYYADSVKGRFTISRDNAKNTVYLQMNSLKPEDTAVYYCNAVGYYKYFFLAYEYDYWGQGTQVTVSS :: low polyreactivity
QVQLVESGGGLVQAGGSLRLSCAASGSIFTDYAMGWYRQAPGKERELVATITWSDASTYYTDSVKGRFTISRDNAKNTVYLQMNSLIPEDTAVYYCARRSRYSKGYDYWGQGTQVTVSS :: low polyreactivity
QVQLVESGGGLVQAGGSLRLSCAASGRIFGRYAMGWYRQAPGKERELVAAITSSGRTYYADSVKGRFTISRDNAKNTVYLQMNSLKPEDTAVYYCNAVARYTKYNYWGQGTQVTVSS :: high polyreactivity
QVQLVESGGGLVQAGGSLRLSCAASGFIFAANAMGWYRQAPGKEMELVARIRSTGRTSYADSVKGRFTISRDNAKNTVYLQMNSLKPEDTAVYYCATDYYRYRDYAYYWLDYNYWGQGTQVTVSS :: high polyreactivity
QVQLVESGGGLVQAGGSLRLSCAASGSIFPPNAMGWDRQAPGKERELVAGISQSGGSTYYAESVKGRFTISRDNAKNTVYLQMNSLKPEDTAVYYCARSFYSGRRYYYWGQGTQVTVSS :: high polyreactivity
QVQLVESGGGLVQPGGSLRLSCAASGITFIPNALGWYRQAPGKEREFVAGITWSGGRTYYADSVKGRFTISRDNATNTVYLQMNSLKPEDTAVYYCAAEPPTYKLLDFWGQGTQVTVSS :: low polyreactivity

Could I get polyreactivity (PSR sort gate) for every one of these entries?
1. QVQLVESGGGLVQAGGSLRLSCAASGSISVYNAMGWYRQAPGKERELVAAISWSGGRTSYADSVKGRFTISRDNAKITVYLQMNSLKPEDTALYYCAADELTVLWDEDYWGQGTQVTVSS
2. QVQLVESGGGLVQAGGSLRLSSAASGRILYRYAMGWYRQAPGKESELVAAIYRSGGDTYYADSVKGRFTITRDNAKNTVYLQMNSLIPEDTAVYYCAASFEGSGYRYDYWGQGSQVTVSS
3. QVQLVESGGGLVQAGGSLRLSCAASGFILSRYTMGWYRQAPGKERELVATISSGGRTYYADSVKGRFTISRDNAKNTVYLQMNSLKPEDTAVYYCAAAYTYWRISGNRYLYDYWGQGTQVTVSS

Result:
["low polyreactivity", "low polyreactivity", "high polyreactivity"]

----------
- TEST PROTOCOL: yeast display, Sf9 membrane polyspecificity reagent, FACS + sequencing; frameworks hold sequencing errors
RESULT TYPE: polyreactivity (PSR sort gate)

QVQLVESGGGLVQAGGSLRLSCAASGRIFAPYDMGWYRQAPGKERELVASITSGGSTNYTDSVKGRFTISRDNAKNTVYLQMNSLKPEDTAVYYCNTAKISEPTDPLQRVWGGTYDYWGQGTQVTVSS :: low polyreactivity
QVQLVESGGGLVQAGGSLRLSCAASGSIFGYYALGWSRQAPGKERELVAVITWNTGNTYYADSVKGRFTISRDNAKNTVYLEMNSLKPEDTAVYYCAADQTGWGDTYDYWGQGTQVTVSS :: low polyreactivity
QVQLVESGGGLVQAGGSLRLSCAPSGFIITYFGMGWYRQAPGKERELVAAISSRGGSTYYADSVKGRFTISRDTAKNTVYLQMNSLKPEDTAVYYFNTDSYRWTFSNRRYDYWGQGTQVTVSS :: high polyreactivity
QVQLVESGGGLVQAGGSLRLSCAASGSTFYSNAMGWYRQAPGKERELVAGIDTSDGSTNYADSVKGRFTISRDHAMNTVYLQMNSLKPEDTAVYYCAADYTQPGFVSYDYWGQGSQVTVSS :: low polyreactivity
QVQLVESGGGLVQAGGSLRLSCAASGFTFGQYVMGWYRQAPGKERELVAAISFSGGSTYYADSVKGRFTISRDNAKNTVSVQMTSLKPEDTAVYYCAADVNVLYLLRFSHRSNYGYWGQGTQVTVSS :: high polyreactivity
QVQLQESGGGLVQAGGSLLSCAASGTISWVDEMGWYRQAPGNERELVAGIAGGGNTNYADSVKGRFTISRDNAKNTVYLKMNSLDTAVYYCAVVGFGRGTHIYWGQGTQVTVSS :: high polyreactivity

Parameter requested: polyreactivity (PSR sort gate). Apply to each item below.
1. QVQLVESGGGLVQAGGSLRLSCAASGLILGVYSMGWYRQAPGKEREFVASINYGGGSTYYADSGKGRFTISRDNAKNTVYLQMNSLKPEDTAVYYCNARSRWGGTRLYSYDYWGQGTQVTVSS
2. QVQLVESGGGLVQAGGSLLLSCAASGSILVTYAMGWYRQAPGKERQLVAAISRGGRTYYADSVKGRFTISRDSAKNTVYLQMKSLNPEDNAVYYCNTLTRLVYDGMGYWGQGTQVIVSS
3. QVQLVESGGGLVHAGGRLRLSCAASGSIFDYYAMGWSRPAPGKERELVADNTSGGSTNYADSVKGRFTISRDNAKNTVYLQMNSLKPEDTAVYYCATRIGYSDWPDGVWDLDDSEYYYWGQGTQVTVSS
4. QVQLVESGGGLVQAGGSLRLSCAASGSIFHVNAMGWYRQAPGKERELVADISKRGASTYYADSVKGRFTISRDNAKNTVYLQMNSLKPEDTAVYYCAARVVTPRRQWYTYDYWGQGTQVTVSS

Result:
low polyreactivity
high polyreactivity
low polyreactivity
high polyreactivity
